assayedSystem: Carbonic anhydrase 9 (Homo sapiens, UniProt Q16790)
testDescription: Inhibition of recombinant human carbonic anhydrase 9 assessed as inhibition of CO2 hydration preincubated for 15 mins prior to testing by phenol red based stopped-flow assay
assayReadout: Ki
Answer format: value, then unit.

Worked cases, answers included:
substancesmiles=NS(=O)(=O)c1ccc(N/N=C(\CS(=O)(=O)c2ccccc2)c2ccc(Br)cc2)cc1 assayedsystem="Carbonic anhydrase 9 (Homo sapiens, UniProt Q16790)" recordedmeasurement="61.2 nM"
substancesmiles=Cc1ccc(S(=O)(=O)C/C(=N\Nc2ccc(S(N)(=O)=O)cc2)c2ccsc2)cc1 assayedsystem="Carbonic anhydrase 9 (Homo sapiens, UniProt Q16790)" recordedmeasurement="56.3 nM"
substancesmiles=Cc1ccc(S(=O)(=O)C/C(=N\Nc2ccc(S(N)(=O)=O)cc2)c2ccc(F)cc2)cc1 assayedsystem="Carbonic anhydrase 9 (Homo sapiens, UniProt Q16790)" recordedmeasurement="27.6 nM"
substancesmiles=NS(=O)(=O)c1ccc(N/N=C(\CS(=O)(=O)c2ccccc2)c2ccc(Cl)cc2)cc1 assayedsystem="Carbonic anhydrase 9 (Homo sapiens, UniProt Q16790)" recordedmeasurement="34.8 nM"
substancesmiles=NS(=O)(=O)c1ccc(N/N=C(\CS(=O)(=O)c2ccccc2)c2ccc3ccccc3c2)cc1 assayedsystem="Carbonic anhydrase 9 (Homo sapiens, UniProt Q16790)" recordedmeasurement="39.3 nM"
substancesmiles=NS(=O)(=O)c1ccc(N/N=C(\CS(=O)(=O)c2ccccc2)c2cc3ccccc3o2)cc1 assayedsystem="Carbonic anhydrase 9 (Homo sapiens, UniProt Q16790)" recordedmeasurement="69.1 nM"
substancesmiles=Cc1ccc(S(=O)(=O)C/C(=N\Nc2ccc(S(N)(=O)=O)cc2)c2ccc([N+](=O)[O-])cc2)cc1 assayedsystem="Carbonic anhydrase 9 (Homo sapiens, UniProt Q16790)" recordedmeasurement="79.2 nM"
substancesmiles=NS(=O)(=O)c1ccc(N/N=C(\CS(=O)(=O)c2ccccc2)c2ccco2)cc1 assayedsystem="Carbonic anhydrase 9 (Homo sapiens, UniProt Q16790)" recordedmeasurement="79.3 nM"

Q) What value of Ki has been recorded for this entry: `Cc1ccc(S(=O)(=O)C/C(=N\Nc2ccc(S(N)(=O)=O)cc2)c2ccc3ccccc3c2)cc1`
A) 15.3 nM
